- Species: Rattus norvegicus
- Protocol text: Open TG-GATES - Regimen: Daily Repeat
- Format: toxicity, organism-based, Sprague-Dawley
- Design: regimen Daily Repeat, gender Male, age 6 weeks
- Condition: in vivo, po, 0 mg/kg, […], tissue Plasma, route gavage, dose level Control, time 7 day
Reported TG by item:

Molecule	TG [mg/dL]
CCOC(=O)[C@H](CCc1ccccc1)N[C@@H](C)C(=O)N1CCC[C@H]1C(=O)O	130.2
C1CCC(C(CC2CCCCN2)C2CCCCC2)CC1 (centres undefined)	101
CC(CN1c2ccccc2Sc2ccccc21)N(C)C (centres undefined)	89.4
CN1C(C(=O)Nc2ccccn2)=C(O)c2sc(Cl)cc2S1(=O)=O	132.8
Clc1c(Cl)c(Cl)c(Cl)c(Cl)c1Cl	94.6
CC(=O)Nc1nnc(S(N)(=O)=O)s1 [ACETAZOLAMIDE]	101.8
C#C[C@]1(O)CC[C@H]2[C@@H]3CCC4=Cc5oncc5C[C@]4(C)[C@H]3CC[C@@]21C	106.8
CN(C)[C@@H]1C(O)=C(C(N)=O)C(=O)[C@@]2(O)C(O)=C3C(=O)c4c(O)cccc4[C@@](C)(O)[C@H]3C[C@@H]12	90.8
Cc1cccc(Nc2ccccc2C(=O)O)c1C	68.2
